method_description: Plasma concentration of RM-133 with different vehicles
Type: in vivo, Balb/c mice
particulars: female, Balb/c, mouse, sc, 120 mg/kg, vehicle #8 soya oil (92%) EtOH (8%), single s.c. 120 mg/kg in 0.1 mL
parameter_measured: concentration at 3 h (ng/mL)
Supply the numeric figure in ng/mL, leaving out any unit text.

Recorded concentration at 3 h (molecule `C#C[C@]1(O)CC[C@H]2[C@@H]3CC[C@H]4C[C@H](O)[C@@H](N5CCN(C(=O)[C@@H]6CCCN6C(=O)c6ccc7ccccc7n6)CC5)C[C@]4(C)[C@H]3CC[C@@]21C` ): 137

###

method_description: Plasma concentration of RM-133 with different vehicles
Type: in vivo, Balb/c mice
particulars: female, Balb/c, mouse, sc, 120 mg/kg, vehicle #7 sesame oil (89.7%) EtOH (7.8%) benzyl benzoate (1%) benzyl alcohol (1%) Tween 80 (0.5%), single s.c. 120 mg/kg in 0.1 mL
parameter_measured: concentration at 12 h
Enter the number, and then the unit.

Recorded concentration at 12 h (compound `C#C[C@]1(O)CC[C@H]2[C@@H]3CC[C@H]4C[C@H](O)[C@@H](N5CCN(C(=O)[C@@H]6CCCN6C(=O)c6ccc7ccccc7n6)CC5)C[C@]4(C)[C@H]3CC[C@@]21C` ): 214 ng/mL

Recorded values, source paper PMC4682813.
